# assayed.system: Sentrin-specific protease 8 (Homo sapiens) (UniProt Q96LD8)
# Sequence (Q96LD8 whole entry, looked up): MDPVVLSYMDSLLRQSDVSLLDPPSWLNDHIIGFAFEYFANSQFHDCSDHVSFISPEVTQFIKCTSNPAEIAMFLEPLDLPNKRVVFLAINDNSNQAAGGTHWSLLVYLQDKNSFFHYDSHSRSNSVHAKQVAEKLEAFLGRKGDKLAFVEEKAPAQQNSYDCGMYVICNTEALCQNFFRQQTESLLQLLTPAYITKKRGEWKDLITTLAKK
# measurement.protocol: blockers of human SENP8 peptidase activity – biochemical, luminescence, primary screen (AID 2540)
# conditions: purified SENP8, Z-RLRGG-aminoluciferin cleavage, at 10 µM, active compounds read high
The campaign covered roughly 330,000 compounds. About 4,100 (1.2%) were called active. Shown is part of a subset that was picked to be rich in actives.
Catalogue of inhibition readings, one per entry.
reported.metric: inhibition (%)

molecule: C=CCN(C(=O)Nc1ccc2c(c1)nc(C)n2C)c1ccccc1
reported.metric: inhibition
test.result: 0.305

molecule: COc1ccc(N2C(=O)CCC(C(=O)Nc3ccccn3)C2c2ccc(OC)c(OC)c2)cc1 (stereo not given)
reported.metric: inhibition
test.result: -4.67

molecule: Clc1ccc(-c2cc(C3CCNCC3)[nH]n2)c(Cl)c1
reported.metric: inhibition
test.result: 0.621

molecule: COc1ccc(-c2ccc(OC(=O)NC3CCS(=O)(=O)C3)cc2)cc1 (stereo not given)
reported.metric: inhibition
test.result: -13.5

molecule: Cc1ccc(-c2cn3cc(C)ccc3n2)cc1
reported.metric: inhibition
test.result: 84.7

molecule: O=C(OCC(=O)N1CCN(c2ccccc2)CC1)c1ccc([N+](=O)[O-])s1
reported.metric: inhibition
test.result: 58.1

molecule: Cc1c(CC(=O)NCC(=O)NCC(=O)O)c(=O)oc2cc3oc4c(c3cc12)CCCC4
reported.metric: inhibition
test.result: -13.4

molecule: COc1ccc(C(=O)OCC(=O)c2ccc(C)c(S(=O)(=O)N3CCOCC3)c2)cc1OC
reported.metric: inhibition
test.result: -6.51

molecule: O=C(Nc1ccc(N2CCOCC2)cc1)c1cccc(S(=O)(=O)N2CCOCC2)c1
reported.metric: inhibition
test.result: -6.21

molecule: CC(=O)c1cccc(NC(=O)c2cc(C)nn2-c2ccccc2)c1
reported.metric: inhibition
test.result: -2.45

molecule: O=C(/C=C/NCc1ccc(F)cc1)c1ccccc1
reported.metric: inhibition
test.result: -2.04

molecule: CC(=O)Nc1ccc(/C=C/C(=O)c2ccccc2)cc1
reported.metric: inhibition
test.result: -16.7

molecule: COc1ccc(-c2csc(Nc3ccccn3)n2)cc1
reported.metric: inhibition
test.result: 85.4

molecule: COc1ccc(C2C3=C(OC(C)=O)c4ccccc4C3=Nc3c2c(=O)n(C)c(=O)n3C)cc1 (stereo not given)
reported.metric: inhibition
test.result: 7.93

molecule: O=C(Nc1cc2c3c(c1)CC(=O)N3CCC2)c1ccccc1F
reported.metric: inhibition
test.result: 3.3

molecule: COc1cc(NC(=O)COC(=O)c2ccc([N+](=O)[O-])s2)cc(OC)c1OC
reported.metric: inhibition
test.result: 63.8

molecule: COc1ccc(NC(=O)CN(C)C(=O)Cc2coc3cc(C)c(C)cc23)cc1
reported.metric: inhibition
test.result: -3.13

molecule: CCCCCC(=O)N1CCN(S(=O)(=O)c2ccc3c(c2)OCCCO3)CC1
reported.metric: inhibition
test.result: 0.168

molecule: Clc1ccc(CSc2nnc([C@@H]3CCCN3)o2)cc1
reported.metric: inhibition
test.result: -0.161

molecule: O=C(COC(=O)c1ccc(S(=O)(=O)Nc2ccccc2)cc1)NCC1CCCO1 (stereo not given)
reported.metric: inhibition
test.result: -2.95

molecule: COc1cccc(/C=C/C(=O)OCC(=O)N2CCN(c3ccccc3)CC2)c1
reported.metric: inhibition
test.result: -5.84

molecule: O=C(NCCO)C(=O)NCC(c1ccc2c(c1)OCO2)N1CCN(c2ccc(F)cc2)CC1 (stereo not given)
reported.metric: inhibition
test.result: -0.025

molecule: Cc1cc(N/C=C\C(=O)c2ccc(Cl)c(Cl)c2)no1
reported.metric: inhibition
test.result: -16.9

molecule: COc1ccc(C(=O)/C=C/Nc2ccccn2)cc1
reported.metric: inhibition
test.result: 95.5

molecule: COC(=O)C1=C(C(=O)OC)C2(OC1c1ccc(Br)cc1)C(=O)c1ccccc1C2=O (stereo not given)
reported.metric: inhibition
test.result: -0.809

molecule: CCOc1ccc(N/C=C/C(=O)c2ccccc2)cc1
reported.metric: inhibition
test.result: 93.7

molecule: COc1ccc2c(c1OC)C(=O)OC2Nc1nc(-c2ccccc2)cs1 (stereo not given)
reported.metric: inhibition
test.result: 1.85

molecule: CCOc1ccc(NC(=S)N2CCC(NC(=O)c3ccccc3)CC2)cc1
reported.metric: inhibition
test.result: -6

molecule: CC1CN(C(=S)SCC(=O)c2ccccc2)CC(C)O1 (stereo not given)
reported.metric: inhibition
test.result: 1.35

molecule: O=C(NC(=S)N1CCCCC1c1cccnc1)c1ccccc1 (stereo not given)
reported.metric: inhibition
test.result: -8.93

molecule: Cc1ccc(C)c(NC(=O)CSc2nc3c(oc4ccccc43)c(=O)n2-c2ccccc2)c1
reported.metric: inhibition
test.result: -0.496

molecule: Clc1ccc(-c2csc(-c3ccncc3)n2)cc1
reported.metric: inhibition
test.result: -22.5

molecule: COc1ccc(-c2cn3ccc(C)cc3n2)cc1
reported.metric: inhibition
test.result: 95.5

molecule: C[C@H](NC(=O)c1ccccc1Cl)C(=O)OCC(=O)N1CCN(c2ccccc2)CC1
reported.metric: inhibition
test.result: 2.29

molecule: O=C(CSC(=S)N1CCOCC1)c1ccccc1
reported.metric: inhibition
test.result: 59.3

molecule: Cc1cc(N2CCOCC2)nc(-c2ccc(Br)cc2)n1
reported.metric: inhibition
test.result: -13.3

molecule: O=C(N/N=C/c1ccc(Cl)c(Cl)c1)c1ccc2nc[nH]c2c1
reported.metric: inhibition
test.result: -2.15

molecule: Cn1cccc1Cc1nnc(SCC(=O)NCc2ccc3c(c2)OCO3)n1CCc1ccccc1
reported.metric: inhibition
test.result: 2.69

molecule: O=C(CSc1nc2ncccc2[nH]1)Nc1ccc2c(c1)OCCO2
reported.metric: inhibition
test.result: -1.02

molecule: COc1ccc(C(=O)OCC(=O)Nc2ccc3[nH]c(=O)[nH]c3c2)c(OC)c1OC
reported.metric: inhibition
test.result: 2.13

molecule: COc1cc(C(=O)OCc2ccc([N+](=O)[O-])cc2)cc(OC)c1OC
reported.metric: inhibition
test.result: 15.6

molecule: CSc1ccc(/C=N\NC(=O)CC(=O)NC(C)C)cc1
reported.metric: inhibition
test.result: 5.31

molecule: Cc1ccc(C)c(NC(=O)NNC(=O)c2ccc3ccccc3c2O)c1
reported.metric: inhibition
test.result: -2.4

molecule: Cc1nc2cc(NC(=O)Nc3cccc(F)c3)ccc2n1C
reported.metric: inhibition
test.result: 90.8

molecule: COc1ccc(C(=O)Nc2nc(-c3ccc(S(=O)(=O)N4CCOCC4)cc3)cs2)cc1
reported.metric: inhibition
test.result: -0.876
